experiment.description: Study .3: single dose, cross-over, food effect study in healthy volunteers, pharmacokinetic parameters
Type: in vivo, human
settings: human, plasma, oral, 50 mg, 50 mg single dose, Study .3/fasted; read-out: Cmax Mean
reported.endpoint: Cmax (nM)
Give bare numbers, in nM.

**Q:** # Cmax lookup, item OC[C@H]1O[C@@H](c2ccc(Cl)c(Cc3ccc(O[C@H]4CCOC4)cc3)c2)[C@H](O)[C@@H](O)[C@@H]1O [Compound (I.9)]
**A:** 1180

====

experiment.description: Study .2: multiple rising dose trial in diabetic patients, once daily for 8 days, pharmacokinetic parameters
Assay type: in vivo, human
settings: 25 mg single dose, Study .2, fasted; read-out: Cmax Min
reported.endpoint: Cmax
# output: numeric value plus its unit

**Q:** Form field: reported Cmax of "OC[C@H]1O[C@@H](c2ccc(Cl)c(Cc3ccc(O[C@H]4CCOC4)cc3)c2)[C@H](O)[C@@H](O)[C@@H]1O"
**A:** 420 nM

====

experiment.description: Study .2: multiple rising dose trial in diabetic patients, once daily for 8 days, pharmacokinetic parameters
Type: in vivo, human
settings: human, plasma, oral, 2.5 mg, 2.5 mg once daily, steady state, Study .2, fasted; read-out: tmax,ss Mean
reported.endpoint: Tmax (h)
One number for each entry, in h.

**Q:** What does the record list as Tmax for OC[C@H]1O[C@@H](c2ccc(Cl)c(Cc3ccc(O[C@H]4CCOC4)cc3)c2)[C@H](O)[C@@H](O)[C@@H]1O [Compound (I.9)] ?
**A:** 1.33

====

experiment.description: Study .2: multiple rising dose trial in diabetic patients, once daily for 8 days, pharmacokinetic parameters
Type: in vivo, human
settings: 10 mg once daily, steady state, Study .2, fasted; read-out: Cmax,ss Mean
reported.endpoint: Cmax (nM)
Numbers only, in nM.

**Q:** Which Cmax value belongs to OC[C@H]1O[C@@H](c2ccc(Cl)c(Cc3ccc(O[C@H]4CCOC4)cc3)c2)[C@H](O)[C@@H](O)[C@@H]1O [Compound (I.9)] ?
**A:** 283

====

experiment.description: Pharmacokinetic profile in fasting humans, ranges over Studies .1 to .5
Type: in vivo
settings: human, plasma, oral, 10 mg, dose of 10.0 mg, read-out: geometric mean Cmax
reported.endpoint: Cmax

**Q:** Look up Cmax: OC[C@H]1O[C@@H](c2ccc(Cl)c(Cc3ccc(O[C@H]4CCOC4)cc3)c2)[C@H](O)[C@@H](O)[C@@H]1O [Compound (I.9)]
**A:** 0.221 to 0.372 µM

====

experiment.description: Study .2: multiple rising dose trial in diabetic patients, once daily for 8 days, pharmacokinetic parameters
Format: in vivo, human
settings: 2.5 mg single dose, Study .2, fasted; read-out: Cmax Min
reported.endpoint: Cmax

**Q:** Give the measured Cmax of "OC[C@H]1O[C@@H](c2ccc(Cl)c(Cc3ccc(O[C@H]4CCOC4)cc3)c2)[C@H](O)[C@@H](O)[C@@H]1O" .
**A:** 43.3 nM

====

experiment.description: Study .2: multiple rising dose trial in diabetic patients, once daily for 8 days, pharmacokinetic parameters
Assay type: in vivo, human
settings: human, plasma, oral, 2.5 mg, 2.5 mg single dose, Study .2, fasted; read-out: AUC0-inf Median
reported.endpoint: AUC(0-inf)
Put your answer as a value accompanied by its unit after it.

**Q:** Quick check: AUC(0-inf) of OC[C@H]1O[C@@H](c2ccc(Cl)c(Cc3ccc(O[C@H]4CCOC4)cc3)c2)[C@H](O)[C@@H](O)[C@@H]1O [Compound (I.9)] ?
**A:** 0.501 µM·h
